- systemUnderTest: PARP-1 F2 K119I (Homo sapiens, UniProt P09874 103-214, K119I)
- Sequence (P09874 103-214 K119I): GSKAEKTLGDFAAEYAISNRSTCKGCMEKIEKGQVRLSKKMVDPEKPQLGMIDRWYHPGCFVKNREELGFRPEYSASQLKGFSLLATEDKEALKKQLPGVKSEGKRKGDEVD
- protocolDescription: fluorescence anisotropy; 25 mM NaCl, one-site fit; 50 mM Tris-HCl pH 7.0, 150 uM ZnSO4, 4 mM DTT, 25 C; NaCl 0-200 mM (T2, as in cof; 10 nM DNA) or 25 mM (T3 mutants; 25 nM DNA)
- conditionLabel: protein: recombinant; label: fluorescein-dT at T8; single-chain dumbbell, 18 bp with central nick, two tetraloops
assayMetric: Kd (µM)

| binder | assayMetric | valueReported |
| --- | --- | --- |
| CGGTCGATCGTAAGATCGACCGGCGCTGGAGCTTGCTCCAGCGC (structured_DNA, 5'-phosphate) [44-nt nicked dumbbell, 5'-phosphate, fluorescein-dT] | Kd | 4.55 |
